Reference source: PubChem BioAssay

# Study system: Follistatin-related protein 3 (Homo sapiens)
# Assay summary: FSTL3 binders on small-molecule microarrays, primary screen, biochemical, small-molecule microarray, 635 nm fluorescence (AID 1105);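 note: score merges emission near 667 nm and signal to noise per printed spot across three slides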
# Settings: FSTL3 binding, higher = more signal
composite z-score: recorded values
Give the figure by itself; no unit, no explanation.

The value of composite z-score measured for the compound `CCN1C(=O)[C@H]2[C@H]3[C@H](O)[C@H](O)CC(=NOC[C@@H](O)[C@H]4O[C@@H]5OC(C)(C)O[C@@H]5[C@H]4O)[C@@H]3CC[C@H]2C1=O` turned out to be 0.24

The value of composite z-score measured for the compound `CCN1C(=O)[C@H]2[C@H]3[C@H](O)[C@H](O)CC(=NNC(=O)OCc4ccccc4)[C@@H]3CC[C@H]2C1=O` turned out to be -0.0709

The value of composite z-score measured for the compound `C[C@@H]1CC[C@H]2C(=O)N3[C@@H](CC[C@@H](C)[C@@H]3c3ccc(Br)cc3)C(=O)N2[C@H]1c1ccc(Br)cc1` turned out to be 0.384

The value of composite z-score measured for the compound `CC(=O)OC[C@H]1O[C@H](CC=NO[C@@H](C)c2cn([C@H](CO)Cc3ccccc3)nn2)C=C[C@@H]1OC(C)=O` turned out to be 1.06

The value of composite z-score measured for the compound CCOC(=O)[C@H](Cc1ccccc1)NC(=O)CCC1CC(OC(=O)NCc2ccc3c(c2)OCO3)CC2(CCCC(COC(=O)NCCOC)O2)O1 (some centres undefined) turned out to be 1.01

* * *

# Assay summary: small-molecule binders of probe aNOTCH2, primary screen, biochemical, small-molecule microarray, 635/667 nm fluorescence (AID 1121);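 note: score merges feature fluorescence read at 667 nm with its signal to noise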
# Settings: higher = more signal
Readout kind: composite z-score
Give the figure by itself; no unit, no explanation.

- Compound: "CCN1C(=O)[C@H]2[C@H]3[C@H](O)[C@H](O)CC(=NOC(C)CN4CCCc5nc(C)c(C)cc54)[C@@H]3CC[C@H]2C1=O (stereo not given in full)"
  Readout kind: "composite z-score"
  Value measured: 0.0137
- Compound: "Cc1ccc2[nH]c3nc(CCCn4ccnc4-c4ccccc4)nnc3c2c1"
  Readout kind: "composite z-score"
  Value measured: -0.176
- Compound: "CC(=O)OC[C@H]1O[C@@H](ON=C(C)CCN2CCCCc3nc(C)c(C)cc32)[C@H](OC(C)=O)[C@@H](OC(C)=O)[C@@H]1OC(C)=O"
  Readout kind: "composite z-score"
  Value measured: -0.115
- Compound: "CC(C)CON=C1[C@H]2CCn3c(=O)n(C)c(=O)n3[C@H]2[C@H](O)[C@@H]2O[C@H]12"
  Readout kind: "composite z-score"
  Value measured: -0.139

Please examine the following record next.
The value of composite z-score measured for the compound `COC(=O)[C@@H]1CC[C@H](C)[C@@H](c2ccc(Br)cc2)N1` turned out to be 0.0037

* * *

# Assay summary: S. cerevisiae RM11-1a growth modifiers, primary screen, strain RM11-1a, OD600, basal, 24 h (AID 1177);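 note: cultures grown under basal conditions with no added stressor; test concentration not given here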
# Settings: OD600, 24 h, higher = more signal, called active from +8 up or from −8 down
Decide by z-score: equal to or exceeding -0.09 means label 1, less means label 0.

- Compound: "CC(CCC(=O)OC[C@H]1O[C@H](C#Cc2ccccc2)C=C[C@@H]1Oc1ccc(C)cc1)=NOC(C)CN1CCCCc2nc(C)c(C)cc21 (some centres not stated)"
  Answer label: "label 1"
- Compound: "CC(C)CON=C1C[C@@H](O)[C@@H](O)[C@@H]2[C@@H]3C(=O)N(Cc4ccc5c(c4)OCO5)C(=O)[C@@H]3CC[C@@H]12"
  Answer label: "label 1"
- Compound: "CC(C)CON=C1C[C@@H](O)[C@@H](O)[C@@H]2[C@@H]3C(=O)N(Cc4ccccc4)C(=O)[C@@H]3CC[C@H]12"
  Answer label: "label 0"
- Compound: "CCOC(=O)[C@H](Cc1ccccc1)NC(=O)CCC1CC(OC(=O)NCc2ccc3c(c2)OCO3)CC2(CCCC(COC(=O)NCCc3ccc(Cl)cc3)O2)O1 (some centres not stated)"
  Answer label: "label 0"
- Compound: "COC(=O)[C@H](C)NC(=O)CCC1CC(OC(=O)NCCc2ccc(F)cc2)CC2(CCCC(COC(=O)NCC3CCCCC3)O2)O1 (some centres not stated)"
  Answer label: "label 1"
- Compound: "COc1ccc(OC[C@@H]2CC3[C@@H](c4ccc(Br)cc4)[C@H](C)CC[C@H]3C(=O)O2)cc1 (some centres not stated)"
  Answer label: "label 1"

Next up:
Req: In plain terms: is recorded z-score at least -0.09 for `CC(C)[C@@H](OCc1ccccc1)[C@H](C)C=NO[C@H](C)c1cn([C@@H]2COC[C@H]2O)nn1` ?
Resp: label 0
